Assay: Pharmacokinetics assay in rats (intragastric and tail vein administration, plasma LC/MS/MS)
Format: in vivo
Settings: both sexes, Sprague-Dawley (SD), rat, plasma, iv, 10 mg/kg, Vein (tail vein injection) 10 mg/kg
value_kind: half-life (h)
Enter your answer as a number in h; do not include the unit.

Let me know recorded half-life for Cc1c(/C=C2\C(=O)Nc3ccc(F)cc32)[nH]c2c1C(=O)N(C[C@H](O)CN1CCOCC1)CCC2.Cl , thanks.
5.97

* * *

Entries annotated with measured MRT
Test: Pharmacokinetics assay in rats (intragastric and tail vein administration, plasma LC/MS/MS)
Format: in vivo
Details: both sexes, Sprague-Dawley (SD), rat, plasma, po, 10 mg/kg, intragastric 10 mg/kg, read-out: MRT
Where a name gives a salt, the structure may show the parent alone.
Enter your answer as a number in h; do not include the unit.

Solved cases below.
{"compound": "Cc1c(/C=C2\\C(=O)Nc3ccc(F)cc32)[nH]c2c1C(=O)N(C[C@H](O)CN1CCOCC1)CCC2.Cl [Example 5]", "value_kind": "MRT", "value": 6.8}
{"compound": "CC(O)C(=O)O.Cc1c(/C=C2\\C(=O)Nc3ccc(F)cc32)[nH]c2c1C(=O)N(C[C@H](O)CN1CCOCC1)CCC2 [Example 3]", "value_kind": "MRT", "value": 6.28}
{"compound": "Cc1c(/C=C2\\C(=O)Nc3ccc(F)cc32)[nH]c2c1C(=O)N(C[C@H](O)CN1CCOCC1)CCC2 [Example 4, mesylate]", "value_kind": "MRT", "value": 6.68}

Consider the record given below.
Let me know recorded MRT for Cc1c(/C=C2\C(=O)Nc3ccc(F)cc32)[nH]c2c1C(=O)N(C[C@H](O)CN1CCOCC1)CCC2.O=C(O)C[C@H](O)C(=O)O [Example 2] , thanks.
4.29
